# EXPERIMENT_SUMMARY: Pharmacokinetic experiment in SD rats
# Assay type: in vivo
# EXPERIMENTAL_PARAMETERS: male, Sprague-Dawley (SD), rat, po, 25 mg/kg by gavage, plasma
VALUE_KIND: Tmax (h)

a. CON=C(C)C(=O)N1CCC(Nc2cc(C(=O)NC[C@H](O)CN3CCc4ccccc4C3)ncn2)CC1 [Compound of formula (A)]
b. CC(=O)N1CCC(Nc2cc(C(=O)NC[C@H](O)CN3CCc4ccccc4C3)ncn2)CC1 [GSK3326595, reference compound]
Problem: Param metric = Tmax; output whichever of a , b has the minimum value. Provide the label of your selected option as the answer.
Result: a
(a: 0.333 h, b: 2.67 h)
